Please respond with reported IC50 for every item in the list.
- system: Prostaglandin G/H synthase 2 (Homo sapiens)
- Sequence (P35354 whole entry): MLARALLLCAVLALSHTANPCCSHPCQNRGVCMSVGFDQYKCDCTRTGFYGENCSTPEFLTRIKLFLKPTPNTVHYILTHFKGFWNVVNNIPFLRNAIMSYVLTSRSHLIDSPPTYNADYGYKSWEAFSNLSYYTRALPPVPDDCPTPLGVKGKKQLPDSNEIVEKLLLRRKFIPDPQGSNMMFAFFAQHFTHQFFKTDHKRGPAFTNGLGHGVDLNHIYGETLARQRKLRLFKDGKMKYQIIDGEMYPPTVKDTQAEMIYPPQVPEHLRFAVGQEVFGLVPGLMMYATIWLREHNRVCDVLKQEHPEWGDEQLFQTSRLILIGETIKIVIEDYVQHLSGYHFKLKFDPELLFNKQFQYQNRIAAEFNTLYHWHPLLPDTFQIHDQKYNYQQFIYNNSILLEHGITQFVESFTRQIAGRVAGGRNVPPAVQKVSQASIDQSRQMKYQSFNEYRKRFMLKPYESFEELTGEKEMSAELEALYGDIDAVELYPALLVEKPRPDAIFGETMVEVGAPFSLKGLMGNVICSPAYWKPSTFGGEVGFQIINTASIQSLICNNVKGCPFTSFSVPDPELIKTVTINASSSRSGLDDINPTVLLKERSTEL
Answers are plain numbers, in µM.

query: Find the recorded IC50 belonging to COc1ccc(-c2c(Cl)ncn2-c2ccc(S(C)(=O)=O)cc2)cc1F and report it.
result: 0.09

Provide IC50 values for the following items, in order.
1. CS(=O)(=O)c1ccc(-n2cnc(Cl)c2-c2ccc(OCC(CO[N+](=O)[O-])O[N+](=O)[O-])c(F)c2)cc1 (centres undefined)
2. CS(=O)(=O)c1ccc(-n2cnc(Cl)c2-c2ccc(OCCO)c(F)c2)cc1
3. NS(=O)(=O)c1ccc(-n2cnc(Cl)c2-c2ccc(OCCCO[N+](=O)[O-])c(F)c2)cc1

result:
[76, 56, 16]

* * *

Please respond with reported pIC50 for every item in the list.
- system: Prostaglandin G/H synthase 1 (Homo sapiens, UniProt P23219)
- Sequence (P23219 whole entry): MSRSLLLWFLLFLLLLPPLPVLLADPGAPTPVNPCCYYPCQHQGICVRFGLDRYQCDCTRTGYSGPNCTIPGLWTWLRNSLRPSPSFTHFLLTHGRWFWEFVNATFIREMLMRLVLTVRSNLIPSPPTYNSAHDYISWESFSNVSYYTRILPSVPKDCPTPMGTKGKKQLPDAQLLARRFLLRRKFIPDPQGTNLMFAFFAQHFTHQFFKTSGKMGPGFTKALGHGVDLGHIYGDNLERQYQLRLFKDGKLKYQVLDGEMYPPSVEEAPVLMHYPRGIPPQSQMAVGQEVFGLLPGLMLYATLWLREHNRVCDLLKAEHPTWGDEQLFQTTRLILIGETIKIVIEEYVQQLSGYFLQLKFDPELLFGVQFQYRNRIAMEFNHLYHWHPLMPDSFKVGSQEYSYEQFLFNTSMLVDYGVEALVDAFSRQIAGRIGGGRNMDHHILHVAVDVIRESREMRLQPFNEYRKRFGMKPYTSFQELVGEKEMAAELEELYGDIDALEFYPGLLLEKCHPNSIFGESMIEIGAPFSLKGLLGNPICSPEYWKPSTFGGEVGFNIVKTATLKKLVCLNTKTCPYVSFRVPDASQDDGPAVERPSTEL
- protocol_notes: Inhibition of COX1 in human whole blood assessed as TxB2 production after 1 hr
pIC50: −log10 of the molar value.

query: Find the recorded pIC50 belonging to NS(=O)(=O)c1ccc(-n2cnc(Cl)c2-c2ccc(OCCO[N+](=O)[O-])c(F)c2)cc1 and report it.
result: < 4.00

query: Find the recorded pIC50 belonging to NS(=O)(=O)c1ccc(-n2cnc(Cl)c2-c2ccc(OCCO)c(F)c2)cc1 and report it.
result: < 4.00

query: Find the recorded pIC50 belonging to CS(=O)(=O)c1ccc(-n2cnc(Cl)c2-c2ccc(OCCCO[N+](=O)[O-])c(F)c2)cc1 and report it.
result: < 4.00

query: Find the recorded pIC50 belonging to CS(=O)(=O)c1ccc(-n2cnc(Cl)c2-c2ccc(OCCCO)c(F)c2)cc1 and report it.
result: < 4.00

query: Find the recorded pIC50 belonging to COc1ccc(-c2c(Cl)ncn2-c2ccc(S(C)(=O)=O)cc2)cc1F and report it.
result: 5.24

Provide pIC50 values for the following items, in order.
1. NS(=O)(=O)c1ccc(-n2cnc(Cl)c2-c2ccc(OCCCO[N+](=O)[O-])c(F)c2)cc1
2. CS(=O)(=O)c1ccc(-n2cnc(Cl)c2-c2ccc(OCC(CO[N+](=O)[O-])O[N+](=O)[O-])c(F)c2)cc1 (stereo unspecified)
3. NS(=O)(=O)c1ccc(-n2cnc(Cl)c2-c2ccc(OCCCO)c(F)c2)cc1
4. CS(=O)(=O)c1ccc(-n2cnc(Cl)c2-c2ccc(OCCO[N+](=O)[O-])c(F)c2)cc1
5. CS(=O)(=O)c1ccc(-n2cnc(Cl)c2-c2ccc(OCCO)c(F)c2)cc1
6. COc1ccc(-c2c(Cl)ncn2-c2ccc(S(N)(=O)=O)cc2)cc1F

result:
< 4.00
< 4.00
< 4.00
< 4.00
< 4.00
5.72
